- TARGET_ENTITY: T1, cynomolgous monkey CD25 (cynomolgous monkey)
- T1 construct: also called cmCD25; cm
- ASSAY_SUMMARY: SPR (BIAcore), cynomolgous CD25
Listed here are binders together with their documented Kd.

BINDER | Kd, pM
Variant C38 (antibody, name in Kabat numbering, V domains shown, Isotype as printed: G2M3.QL) VH: QVQLVQSGAEVKKPGSSVKVSCKASGYTFTSYRMHWVRQAPGQGLEWMGYISPRKGYTEYNQKFKDKATITADESTNTAYMELSSLRSEDTAVYYCARGGGVFDYWGQGTLVTVSS VL: DIQMTQSPSTLSASVGDRVTITCSASSSISYMHWYQQKPGKAPKLLIYTTSNLASGVPARFSGSGSGTEFTLTISSLQPDDFATYYCHQRSTYPLTFGQGTKVEVK | 100
Variant C39 (antibody, V domains shown) VH: QVQLVQSGAEVKKPGSSVKVSCKASGYTFTSYRMHWVRQAPGQGLEWMGYISPRKGYTEYNQKFKDKATITADESTNTAYMELSSLRSEDTAVYYCARGGGVFDYWGQGTLVTVSS VL: DIQMTQSPSTLSASVGDRVTITCSASSKISYMHWYQQKPGKAPKLLIYTTSDLASGVPARFSGSGSGTEFTLTISSLQPDDFATYYCHQRSTYPLTFGQGTKVEVK | 31

Reference source: patent US20200308290A1
